Reference for the values: PubChem BioAssay

target: Cellular tumor antigen p53 (Homo sapiens) (UniProt P04637); assay: kinase inhibitors altering GFP-p53 stability in HPV16-positive cells, imaging, known kinase inhibitor set, EGFP/DsRed ratio (AID 1053116); conditions: stronger effect = higher value;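 also: cells exposed to compounds for 24 h at 37 °C before reading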
Sequence (P04637 whole entry, looked up): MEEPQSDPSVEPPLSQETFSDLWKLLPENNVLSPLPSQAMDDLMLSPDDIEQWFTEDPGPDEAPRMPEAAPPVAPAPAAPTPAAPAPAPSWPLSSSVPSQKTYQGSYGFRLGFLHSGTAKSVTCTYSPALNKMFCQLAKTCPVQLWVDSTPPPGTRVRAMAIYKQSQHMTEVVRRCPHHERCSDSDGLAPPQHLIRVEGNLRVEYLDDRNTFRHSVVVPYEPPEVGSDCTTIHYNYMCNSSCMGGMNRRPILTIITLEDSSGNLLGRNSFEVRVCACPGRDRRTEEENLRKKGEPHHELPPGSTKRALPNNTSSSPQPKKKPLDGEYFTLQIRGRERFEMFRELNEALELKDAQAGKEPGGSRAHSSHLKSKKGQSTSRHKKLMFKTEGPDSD
Lab note: compare EGFP/DsRed ratio against 0.1. Equal or greater, write fulfilled. Smaller, write not fulfilled.

{"columns": ["STRUCTURE STRING", "ASSAYED SYSTEM", "CATEGORY LABEL"],
 "data": [
  ["Cn1cc(C2=C(c3cccc(Br)c3)C(=O)NC2=O)c2ccccc21", "Cellular tumor antigen p53 (Homo sapiens) (UniProt P04637)", "fulfilled"]
]}

Input: Determine whether this compound has EGFP/DsRed ratio no lower than 0.1: "Cn1c(=O)c(Oc2ccc(F)cc2F)cc2cnc(NC(C)(C)CO)nc21"
Output: fulfilled

Input: Follow-up entry: "CNC(=O)c1cncc(/C=C/c2c(C)cccc2C)c1"
Output: fulfilled

----------
assay: inhibitors of polyQ protein aggregation (AID 1604); details: polyglutamine-induced protein aggregation inhibition assay; stronger effect = higher value; tested at 2.5 µM
Please go through the items and note down their inhibition of aggregation.
Give bare numbers, in %.

Before answering, review these 5 worked examples.
{"columns": ["COMPOUND", "VALUE MEASURED"],
 "data": [
  ["NNCCc1ccccc1", 15.4],
  ["OCCN1CCN(CCCN2c3ccccc3Sc3ccc(Cl)cc32)CC1", 49],
  ["O=c1[nH]cnc2[nH]ncc12", 60.9],
  ["COC1=CC(=O)C[C@@H](C)[C@]12Oc1c(Cl)c(OC)cc(OC)c1C2=O", 56.8],
  ["Cc1cn([C@H]2C[C@H](N=[N+]=[N-])[C@@H](CO)O2)c(=O)[nH]c1=O", 48.1]
]}

Input: Quick check: inhibition of aggregation of Cc1cccc(CN2CCN(C(c3ccccc3)c3ccc(Cl)cc3)CC2)c1 (stereo unspecified) ?
Output: 63.4

----------
assay: growth inhibition of DIPG glioma cells, dose response, cell-based, SU-DIPG-XIII, MIPE5.0, CellTiter-Glo, qHTS (AID 1347064); conditions: SU-DIPG-XIII viability, CellTiter-Glo ATP luminescence;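 as to AC50: cells exposed to compound for 48 hours before the viability read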
Results filed as inconclusive are left out. Calls of active or inactive are those of the source. The limit is not given here; nearly all actives have AC50 up to about 23 µM.
Mark one answer only. Choices: active, inactive

Solved cases below.
{"columns": ["COMPOUND", "CATEGORY LABEL"],
 "data": [
  ["CC1(C)O[C@@H]2C[C@H]3[C@@H]4CCC5=CC(=O)C=C[C@]5(C)[C@@]4(F)[C@@H](O)C[C@]3(C)[C@]2(C(=O)CO)O1", "inactive"],
  ["O=C(C1CCCCC1)N1CC(=O)N2CCc3ccccc3C2C1 (stereo unspecified)", "inactive"],
  ["CCN(CC)CCCC(C)Nc1c2ccc(Cl)cc2nc2ccc(OC)cc12 (stereo unspecified)", "active"],
  ["O=C(c1ccccc1)c1ccc2n1CCC2C(=O)O (stereo unspecified)", "inactive"],
  ["CCn1cc(C(=O)O)c(=O)c2cc(F)c(N3CCNCC3)cc21", "inactive"]
]}

Here is another compound to look at.
Input: Test call for this compound, please: "NS(=O)(=O)c1cc2c(cc1Cl)NCNS2(=O)=O"
Output: inactive

----------
Please go through the items and note down their z-score.
assay: activators of macrophage pro-inflammatory response, cell-based, murine, luminescence (AID 652131); details: murine macrophage pro-inflammatory reporter, stronger effect = higher value
Give bare numbers.

Before answering, review these 5 worked examples.
{"columns": ["STRUCTURE STRING", "z-score"],
 "data": [
  ["Cc1ccc(O)cc1Nc1ccnc2cc(-c3ccccn3)ccc12", 5.39],
  ["COC(=O)c1cncc(/C=C/c2c(C)cc(O)cc2C)c1", -0.608],
  ["COc1cc(/C=N/Nc2ncnc3c2cnn3-c2ccccc2)ccc1O", -0.075],
  ["COc1cccc(-n2ncc3c(N/N=C/c4ccncc4)ncnc32)c1", 0.337],
  ["COc1cc(/C=N/Nc2ncnc3c2cnn3C(C)C)ccc1O", -0.511]
]}

# map each compound to its z-score
1. Cc1nnc(-c2ccc(C)c(-c3ccc(C(=O)NCc4ccc(Cl)cc4)cc3)c2)o1
2. COc1ccc(CNC(=O)c2ccc(-c3cc(-c4nnc(C)o4)ccc3C)cc2)cc1
3. COc1ccccc1-c1cc(/C=C2\C(=O)Nc3ncc(Br)cc32)cc(Br)c1O
4. CCN(CC)Cc1ccc(Nc2nccc(-c3cnn4ncccc34)n2)cc1

Output:
-0.451
-0.363
-0.578
-2.04

# map each compound to its z-score
1. Clc1ccc(CNc2nccc(-c3cnn4ncccc34)n2)cc1
2. Cc1ccc(Nc2ccnc(Nc3cccc(C(N)=O)c3)n2)cc1O

Output:
[-1.14, -1.32]
